target: 5-HT2C receptor (Homo sapiens); construct: host or cells: U2OS; assay: Human 5-HT2C functional assay (beta-arrestin2 recruitment, U2OS_HTR2C_β-Arrestin cells); format: cell-based; conditions: beta-arrestin2 recruitment, U2OS_HTR2C_β-Arrestin cells, 1.5 h incubation; read-out: EC50 5-HT2C (potency in functional assay)
Sequence (P28335 33-458): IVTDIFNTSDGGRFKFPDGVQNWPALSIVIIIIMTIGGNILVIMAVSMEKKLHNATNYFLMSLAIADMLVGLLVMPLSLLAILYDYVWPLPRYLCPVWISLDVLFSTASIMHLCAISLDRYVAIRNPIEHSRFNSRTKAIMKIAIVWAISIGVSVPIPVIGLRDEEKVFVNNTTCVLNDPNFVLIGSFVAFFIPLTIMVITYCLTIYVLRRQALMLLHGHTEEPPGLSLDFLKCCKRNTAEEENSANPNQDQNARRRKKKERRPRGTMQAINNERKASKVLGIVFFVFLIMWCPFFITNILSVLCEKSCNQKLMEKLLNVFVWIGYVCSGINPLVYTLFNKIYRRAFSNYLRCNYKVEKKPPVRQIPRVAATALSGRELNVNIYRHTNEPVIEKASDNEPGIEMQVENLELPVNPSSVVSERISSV
Sequence (P32121 whole entry partner): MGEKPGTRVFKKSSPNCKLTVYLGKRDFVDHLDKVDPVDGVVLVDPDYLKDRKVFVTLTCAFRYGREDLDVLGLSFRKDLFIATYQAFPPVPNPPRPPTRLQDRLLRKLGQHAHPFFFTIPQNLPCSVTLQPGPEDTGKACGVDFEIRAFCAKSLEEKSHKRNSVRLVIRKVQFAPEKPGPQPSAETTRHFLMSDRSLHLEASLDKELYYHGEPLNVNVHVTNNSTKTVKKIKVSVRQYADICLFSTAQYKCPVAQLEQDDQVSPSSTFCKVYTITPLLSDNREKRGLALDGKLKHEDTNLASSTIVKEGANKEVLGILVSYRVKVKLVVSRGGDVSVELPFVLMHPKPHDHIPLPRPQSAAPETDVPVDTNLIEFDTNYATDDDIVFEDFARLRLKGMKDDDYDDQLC
Structures can show the parent of a compound that is named as a salt.
PARAMETER: EC50

# MOLECULE, PARAMETER, OBSERVED_RESULT
records = [
    ("COc1nc(OC2CCCC2F)c(F)cc1CNC(=O)[C@@H]1CCCN1 (stereo partly drawn)", "EC50", "< 20 nM"),
    ("COc1nc(OCC23CC4CC(CC(C4)C2)C3)c(F)cc1CNC(=O)[C@@H]1CCCN1", "EC50", "< 20 nM"),
    ("COc1nc(OCC2CC(F)(F)C2)c(F)cc1CN(C)C(=O)[C@@H]1CCCN1C [Example 106, Hydrochloride]", "EC50", "20 to 200 nM"),
    ("COc1nc(N2CCCC(F)C2)c(F)cc1CNC(=O)[C@@H]1CCCN1 (stereo partly drawn)", "EC50", "20 to 200 nM"),
    ("COc1nc(CC2CCCCC2)c(F)cc1CNC(=O)[C@@H]1CCCN1", "EC50", "< 20 nM"),
    ("COc1nc(N2CCCC(F)(F)C2)c(F)cc1CNC(=O)[C@@H]1CCCN1", "EC50", "20 to 200 nM"),
    ("COc1nc(O[C@H]2CC[C@@H](F)CC2)c(F)cc1CNC(=O)[C@@H]1CCCN1", "EC50", "< 20 nM"),
    ("COc1nc(OCC2CC(F)(F)C2)c(F)cc1CN(C)C(=O)[C@@H]1CCCN1 [Example 115, Hydrochloride]", "EC50", "< 20 nM"),
    ("COc1nc(N2CCC(F)CC2)c(F)cc1CNC(=O)[C@@H]1CCCN1", "EC50", "20 to 200 nM"),
]

* * *

Biological target: 5-HT2C receptor (Homo sapiens)
Test: Human 5-HT2C functional assay (beta-arrestin2 recruitment, U2OS_HTR2C_β-Arrestin cells)
Settings: beta-arrestin2 recruitment, U2OS_HTR2C_β-Arrestin cells, 1.5 h incubation; read-out: EC50 5-HT2C (potency in functional assay)
Procedure: The functional activity of compounds of formula I was assayed by incubation with U2OS_HTR2C_β-Arrestin cells (DiscoverX, 93-0289C3) to induce beta-arrestin2 recruitment to the 5-HT2C receptor. […] The enzyme complementation results in enzyme activity, which is measured following the termination of the agonist incubation using DiscoveRx's detection reagent, which contains a chemiluminescent substrate which produces a high intensity signal. […]
Structures can show the parent of a compound that is named as a salt.
PARAMETER: EC50

# COMPOUND, PARAMETER, OBSERVED_RESULT
rows = [
    ("COc1nc(OC2CCC(F)(F)CC2)c(F)cc1CNC(=O)[C@@H]1CCN1C [Example 39]", "EC50", "20 to 200 nM"),
    ("COc1nc(OC2CC(F)(F)C2(F)F)c(F)cc1CNC(=O)[C@@H]1CCCN1 (some centres unmarked) [Example 112]", "EC50", "< 20 nM"),
    ("COc1nc(N2CCCC(C(F)(F)F)C2)c(F)cc1CNC(=O)[C@@H]1CCCN1 (some centres unmarked) [Example 153]", "EC50", "20 to 200 nM"),
    ("COc1nc(OC2CCC(F)(F)CC2)c(F)cc1CNC(=O)[C@@H]1CCCN1C [Example 10]", "EC50", "< 20 nM"),
    ("COc1nc(OC2CC3C(C2)C3(F)F)c(F)cc1CNC(=O)C1CCCN1C (centres unmarked) [Example 64, Dihydrochloride]", "EC50", "< 20 nM"),
    ("COc1nc(OC2CCC(C(F)(F)F)CC2)c(F)cc1CNC(=O)[C@@H]1C[C@H]2C[C@H]2N1 (some centres unmarked) [Example 82]", "EC50", "20 to 200 nM"),
    ("COc1nc(OC2CCC(C(F)(F)F)CC2)c(F)cc1CNC(=O)[C@@H]1C[C@@H](C)CN1C (some centres unmarked) [Example 62, Hydrochloride]", "EC50", "20 to 200 nM"),
    ("COc1nc(C2CCOCC2)c(F)cc1CNC(=O)[C@@H]1CCCN1 [Example 159, Hydrochloride]", "EC50", "200 to 1000 nM"),
    ("COc1nc(OCC2CC3C(C2)C3(F)F)c(F)cc1CNC(=O)[C@@H]1CCCN1 (some centres unmarked) [Example 56]", "EC50", "< 20 nM"),
    ("COc1nc(N(C)C2CCC(F)(F)CC2)c(F)cc1CNC(=O)[C@@H]1CCCN1 [Example 154]", "EC50", "20 to 200 nM"),
    ("COc1nc(OCc2ccc(F)cc2)c(F)cc1CN(C)C(=O)[C@@H]1CCCN1 [Example 124, Hydrochloride]", "EC50", "20 to 200 nM"),
    ("COc1nc(OC2CCC(F)(F)CC2)c(F)cc1CNC(=O)[C@H]1CCCN1C [Example 52, Hydrochloride]", "EC50", "20 to 200 nM"),
    ("COc1nc(OCC2(C(F)(F)F)CC2)c(F)cc1CN(C)C(=O)[C@@H]1CCCN1C [Example 98, Hydrochloride]", "EC50", "20 to 200 nM"),
    ("COc1nc(N2CCc3ccccc32)c(F)cc1CNC(=O)[C@@H]1CCCN1 [Example 138, Hydrochloride]", "EC50", "200 to 1000 nM"),
    ("COc1nc(OC2CCC(C(F)(F)F)CC2)c(F)cc1CNC(=O)[C@H]1NC[C@@H]2C[C@@H]21 (some centres unmarked) [Example 85, Hydrochloride]", "EC50", "< 20 nM"),
    ("COc1nc(OCC2CCC(F)(F)C2)c(F)cc1CNC(=O)[C@@H]1CCCN1C (some centres unmarked) [Example 7]", "EC50", "< 20 nM"),
    ("COc1nc(OC2CC(OC)C2)c(F)cc1CNC(=O)[C@@H]1CCCN1 (some centres unmarked) [Example 104, Hydrochloride]", "EC50", "< 20 nM"),
]

From: patent US20190062305A1
